The reported measurements were obtained from the supplement of paper PMC7877785.

Experiment: self-splicing fitness, log relative to wild type (ln ratio); higher = more splicing; Tetrahymena group I intron in knt gene, E. coli kanamycin selection, DiMSum; sequences stand for … in CUCUCU…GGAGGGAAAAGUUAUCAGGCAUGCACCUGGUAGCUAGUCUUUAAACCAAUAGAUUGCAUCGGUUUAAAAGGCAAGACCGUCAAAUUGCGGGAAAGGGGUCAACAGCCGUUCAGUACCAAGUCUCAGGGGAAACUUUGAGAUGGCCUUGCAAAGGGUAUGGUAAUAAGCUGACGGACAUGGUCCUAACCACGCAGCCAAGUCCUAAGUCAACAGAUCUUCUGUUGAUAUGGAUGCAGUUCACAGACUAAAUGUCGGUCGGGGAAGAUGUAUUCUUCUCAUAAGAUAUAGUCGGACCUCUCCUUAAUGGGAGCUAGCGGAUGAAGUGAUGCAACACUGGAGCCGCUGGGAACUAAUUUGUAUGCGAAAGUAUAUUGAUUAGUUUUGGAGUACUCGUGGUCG;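 further: selection with 25 µg/mL kanamycin versus none on LB agar overnight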
Conditions: 30 °C
// self-splicing fitness (ln) lookup, one value per entry

Record Sequence	self-splicing fitness (ln)
GUUGAGCAAUAUUACGCAUA	-2.36
AAUUAGCAAUAUUACGAUAG	-3.1
GCGUAGCAAUAUUACGACGG	-3.73
CUCCAGCAAUAUUACGGACU	-2.61
AGGUAGCAAUAUUACGCGCG	-0.525
AAGCAGCAAUAUUACGAUGC	-1.38
GGAGAGCAAUAUUACGCUUG	-3.1
AUUGAGCAAUAUUACGAGUG	-2.69
UUUAAGCAAUAUUACGGUAG	-0.741
GUGUAGCAAUAUUACGACAA	-0.665
ACUGAGCAAUAUUACGUUUC	-3.19
GCGAAGCAAUAUUACGUGAU	-2.53
CUGGAGCAAUAUUACGUGCU	-2.27
CGGCAGCAAUAUUACGACUU	-0.541
AGCUAGCAAUAUUACGCAUU	-3
AAUGAGCAAUAUUACGUGGA	-3.35
CUUAAGCAAUAUUACGGGGG	-3.65
UGUUAGCAAUAUUACGCGGU	-4.19
UAGCAGCAAUAUUACGAGAU	-3.24
CCACAGCAAUAUUACGGAUC	-4.54
GCGAAGCAAUAUUACGUAGG	-1.32
GUGCAGCAAUAUUACGGGCA	-2.08
AAGGAGCAAUAUUACGUUGA	-3.47
CAGAAGCAAUAUUACGUUGA	-2.84
GCACAGCAAUAUUACGUCUG	-2.53
UCAUAGCAAUAUUACGUUUC	-3.79
AUGAAGCAAUAUUACGGAAA	-2.48
ACUUAGCAAUAUUACGCGUU	-2.5
CUCUAGCAAUAUUACGCGCG	-3.15
CCUGAGCAAUAUUACGGAUC	-2.1
AUAGAGCAAUAUUACGGGUU	-2.43
ACCAAGCAAUAUUACGUCCC	-2.14
UAUUAGCAAUAUUACGGCUG	-0.432
AAUCAGCAAUAUUACGCUUC	-1.77
GGGUAGCAAUAUUACGCCGG	-4.18
GCGCAGCAAUAUUACGGUAC	-1.22
CUAUAGCAAUAUUACGAUUG	-0.58
UUAAAGCAAUAUUACGGCAU	-0.866
AUACAGCAAUAUUACGCACU	-0.66
AUCCAGCAAUAUUACGACCG	-1.43
CGCAAGCAAUAUUACGCCUU	-2.63
GUCAAGCAAUAUUACGUUAG	-4.36
CUUGAGCAAUAUUACGAGUA	-2.07
UGAUAGCAAUAUUACGUAUA	-1.17
GCCGAGCAAUAUUACGUCCU	-2.96
ACGAAGCAAUAUUACGACUG	-0.657
UACCAGCAAUAUUACGGCCC	-1.19
CUUAAGCAAUAUUACGGAAG	-2.03
UGGGAGCAAUAUUACGUCGU	-2.14
UAUUAGCAAUAUUACGGAGA	-2.09
GUGAAGCAAUAUUACGCCUU	-0.0499
AGUCAGCAAUAUUACGGGCC	-2.98
UGUGAGCAAUAUUACGGUGC	-3.57
CCUAAGCAAUAUUACGCACA	-4.21
AGAGAGCAAUAUUACGAGUU	-4.21
GCGAAGCAAUAUUACGCGGC	-3.23
AGUUAGCAAUAUUACGGACC	-0.357
GGCUAGCAAUAUUACGGGUG	-0.804
UGCCAGCAAUAUUACGAUAG	-2.17
ACUCAGCAAUAUUACGUGAA	-1.27
UAGAAGCAAUAUUACGGUCU	-0.542
AAAGAGCAAUAUUACGAUUU	-0.695
GAGAAGCAAUAUUACGACGA	-0.554
UAGUAGCAAUAUUACGUGGA	-2.56
